experimental system: Fes (UniProt P07332)
Sequence (P07332 whole entry, looked up): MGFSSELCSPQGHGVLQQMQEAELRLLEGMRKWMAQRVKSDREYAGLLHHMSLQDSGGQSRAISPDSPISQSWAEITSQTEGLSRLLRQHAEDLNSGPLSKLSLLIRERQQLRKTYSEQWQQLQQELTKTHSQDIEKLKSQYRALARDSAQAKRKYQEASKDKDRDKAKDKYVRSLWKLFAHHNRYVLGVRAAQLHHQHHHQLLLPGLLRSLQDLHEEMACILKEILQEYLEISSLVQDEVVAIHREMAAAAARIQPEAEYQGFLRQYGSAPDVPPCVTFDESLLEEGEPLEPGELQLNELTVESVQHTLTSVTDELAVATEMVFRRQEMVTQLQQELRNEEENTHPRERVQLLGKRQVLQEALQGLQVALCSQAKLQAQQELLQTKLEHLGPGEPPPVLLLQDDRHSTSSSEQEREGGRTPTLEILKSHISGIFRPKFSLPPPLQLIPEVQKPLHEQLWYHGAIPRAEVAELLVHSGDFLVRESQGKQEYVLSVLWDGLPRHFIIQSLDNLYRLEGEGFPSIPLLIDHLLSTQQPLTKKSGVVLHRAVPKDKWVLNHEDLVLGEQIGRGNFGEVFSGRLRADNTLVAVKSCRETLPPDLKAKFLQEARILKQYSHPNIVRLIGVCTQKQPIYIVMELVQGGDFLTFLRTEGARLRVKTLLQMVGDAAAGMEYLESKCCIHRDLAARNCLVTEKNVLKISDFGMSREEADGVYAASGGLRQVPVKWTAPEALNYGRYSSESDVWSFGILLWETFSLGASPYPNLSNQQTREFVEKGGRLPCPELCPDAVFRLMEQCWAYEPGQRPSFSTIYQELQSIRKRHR
assay: phosphorylation enrichment, bacterial display (enrichment ratio); higher = better substrate or ligand; peptides without Tyr show the background;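 note: 11-residue human phosphosite peptides and single-mutation variants displayed on the E. coli surface, counted by deep sequencing, each peptide's frequency after selection divided by its frequency in the unselected input library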;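 note: frequency after pTyr selection over input frequency; kinase dosed for 20-30% of maximal phosphorylation in three min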
Item-by-item account of phosphorylation enrichment
// return just the number, without any unit appended

Solved cases (5 shown):
ordered residues	value observed
HRTLVYGGIFL [FBP1_Y259]	1.38
APTSGYQEFVH [IL4R_Y575]	0.764
KLNNEYLELNF [MME_Y497_YF]	1.04
ATLDVYNPFET [SCAMP3_Y41]	1.42
SDVSSYLEGQA [GCG_Y110]	0.938

Data request: Entry LSVMSYDLGMF [GBA3_Y174] : reported phosphorylation enrichment = ?
Data returned: 1.59

Data request: Param item: PVRIAYGRPRG [SUGP2_Y985_D986G]
Data returned: 0.523

Data request: Param item: NPSYNYEIVNQ [DYNC1H1_Y3379_R3384Q]
Data returned: 0.818

Data request: Param item: NVTGHYIPPFH [PPA2_Y59_S61P]
Data returned: 0.679

Data request: Param item: LHAALYKRKLL [TTLL5_Y542_E543K]
Data returned: 0.702

Data request: Param item: LEAVSYSSRFA [RNLS_Y190_YF]
Data returned: 0.773

Data request: Param item: MARDIYRASYY [ALK_Y1278]
Data returned: 0.683

Data request: Param item: FFRKFYNKSED [RYR1_Y4864]
Data returned: 0.718

Data request: Param item: TRSFDYMEGED [FGF7_Y58_G62E_YF]
Data returned: 1.6

====

Test system: c-Src
assay: phosphorylation enrichment, bacterial display (enrichment ratio); higher = better substrate or ligand; peptides without Tyr show the background
Item-by-item account of phosphorylation enrichment
// return just the number, without any unit appended

ordered residues	phosphorylation enrichment
GADAIYDHINE [UQCR10_Y44]	4.96
HHIDYYKKTTN [FGFR1_Y654]	0.481
VNNAVYGIDAM [EIF3J_Y143]	1
RELGEYGLQAY [ALDH2_Y497]	0.696
ILTLKYLIEHG [ACTG1_Y69_P70L]	0.483
LGQRIYQYIQS [DYRK1B_Y271]	5.08

Data request: Entry GPIFRYDSGGA [CYP11B1_Y81_L83S] : reported phosphorylation enrichment = ?
Data returned: 0.475

Data request: Param item: GADDSYYTVRS [ZAP70_Y492_A495V]
Data returned: 1.65

====

Item-by-item account of phosphorylation enrichment
experimental system: FGFR3 (UniProt P22607)
Sequence (P22607 whole entry, looked up): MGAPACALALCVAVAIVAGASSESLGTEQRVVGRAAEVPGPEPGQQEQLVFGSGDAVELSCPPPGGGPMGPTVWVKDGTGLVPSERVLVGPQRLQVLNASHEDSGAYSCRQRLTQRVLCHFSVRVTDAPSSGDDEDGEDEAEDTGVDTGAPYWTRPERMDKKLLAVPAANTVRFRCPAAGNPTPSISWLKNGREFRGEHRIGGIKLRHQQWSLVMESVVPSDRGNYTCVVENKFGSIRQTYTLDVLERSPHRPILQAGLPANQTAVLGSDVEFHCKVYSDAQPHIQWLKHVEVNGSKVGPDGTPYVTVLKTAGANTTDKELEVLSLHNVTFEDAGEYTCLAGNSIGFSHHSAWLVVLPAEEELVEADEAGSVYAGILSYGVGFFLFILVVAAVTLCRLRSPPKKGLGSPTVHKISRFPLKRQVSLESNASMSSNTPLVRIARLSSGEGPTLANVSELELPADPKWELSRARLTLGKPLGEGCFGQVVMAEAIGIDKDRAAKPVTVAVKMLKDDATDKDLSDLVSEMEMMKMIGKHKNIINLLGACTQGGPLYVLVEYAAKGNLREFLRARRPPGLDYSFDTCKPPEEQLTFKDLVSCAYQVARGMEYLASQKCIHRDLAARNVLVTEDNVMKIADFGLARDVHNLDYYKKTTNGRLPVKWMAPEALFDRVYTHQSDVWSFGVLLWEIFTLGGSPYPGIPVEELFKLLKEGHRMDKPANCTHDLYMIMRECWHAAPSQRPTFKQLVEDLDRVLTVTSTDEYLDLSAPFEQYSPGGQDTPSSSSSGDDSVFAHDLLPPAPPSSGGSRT
assay: phosphorylation enrichment, bacterial display (enrichment ratio); higher = better substrate or ligand; peptides without Tyr show the background

Solved cases (3 shown):
ordered residues	recorded endpoint	value observed
DPHQQYFIAMD [TBX15_Y159_YF]	phosphorylation enrichment	1.19
PVKDGYQMAQP [CSF1R_Y873_L868P]	phosphorylation enrichment	0.694
SDVCMYRKNTF [SYNE2_Y570_I574T_YF]	phosphorylation enrichment	0.571

Data request: Entry GASWRYRSGVS [NEU1_Y242_G243R] : reported phosphorylation enrichment = ?
Data returned: 0.511

Data request: Param item: GSTLSYFGLAT [P2RX7_Y343_A348T]
Data returned: 1.36

Data request: Param item: SKLTIYDGRPS [MTM1_Y277_A279G]
Data returned: 0.508

Data request: Param item: GAVDTYCRHNF [HLA-DRB1_Y107_A102G_YF]
Data returned: 0.528

Data request: Param item: DGKFSYLKVGH [GRM3_Y480_G475D_YF]
Data returned: 0.478
